The origin of these recorded values is patent US12077503B2.

For each record, write down the corresponding pest or weed control at 31 g/ha.
- System: pigweed (Amaranthus retroflexus)
- PROCEDURE_DETAILS: Test A preemergence
- Type: in vivo
- ASSAY_SETUP: Amaranthus retroflexus, pre-emergence, 240 h, Preemergence, 31 g ai/ha; 0 to 100 scale (0 no effect, 100 complete control); read-out: Plant response rating, Pigweed
# unit: % | format: bare number

Check pigweed (Amaranthus retroflexus) data and give pest or weed control at 31 g/ha for `O=C(Nc1cccc(F)c1F)[C@H]1C(=O)N(OCc2ccccc2)CC[C@@H]1c1cccc(Cl)c1` .
0

Please tell me the measured pest or weed control at 31 g/ha for `CC(C)Oc1cc([C@H]2CN(C)C(=O)[C@@H]2C(=O)Nc2cccc(F)c2F)cc(C(F)(F)F)c1` ; system: pigweed (Amaranthus retroflexus).
0

Identify measured pest or weed control at 31 g/ha obtained with pigweed (Amaranthus retroflexus) for `CSc1ccccc1NC(=O)[C@H]1C(=O)N(C)C[C@@H]1c1cc(C)c(C)c(C)c1` .
30

Answer with pest or weed control at 31 g/ha of `CN1CC[C@H](c2cccc(OC(F)(F)F)c2)[C@@H](C(=O)Nc2cccc(Cl)c2F)C1=O` measured for pigweed (Amaranthus retroflexus).
0

###

- Test system: ragweed (common ragweed, Ambrosia elatior)
- PROCEDURE_DETAILS: Test A preemergence
- Format: in vivo
- ASSAY_SETUP: Ambrosia artemisiifolia, pre-emergence, 240 h, Preemergence, 125 g ai/ha; 0 to 100 scale (0 no effect, 100 complete control); read-out: Plant response rating, Ragweed
READOUT_TYPE: pest or weed control at 125 g/ha
Field: value (include unit after the number)

Check the records and state pest or weed control at 125 g/ha for `COc1ccc([C@H]2CN(C)C(=O)[C@@H]2C(=O)Nc2ccccc2F)cc1`
0%

Please look at this molecule and report its pest or weed control at 125 g/ha: `Cc1ccc([C@H]2CN(C)C(=O)[C@@H]2C(=O)Nc2cccnc2F)cc1`
90%

Output pest or weed control at 125 g/ha of `Cc1ccc([C@H]2CN(C)C(=O)[C@@H]2C(=O)Nc2ccc(F)nc2F)cc1`
0%

Using the record for `CS(=O)(=O)c1ccccc1NC(=O)[C@H]1C(=O)NC[C@@H]1c1ccc2c(c1)CCO2` , state its measured pest or weed control at 125 g/ha.
0%

Give recorded pest or weed control at 125 g/ha. `CC(C)Oc1ccc([C@H]2CN(C)C(=O)[C@@H]2C(=O)Nc2ccccc2F)cc1F`
0%

###

- Test system: ducksalad (Heteranthera limosa)
- PROCEDURE_DETAILS: Test B flooded paddy test
- Type: in vivo
- ASSAY_SETUP: Flood, 250 g ai/ha; 0 to 100 scale where 0 is no effect and 100 is complete control; 13 to 15 d
READOUT_TYPE: Plant response rating, Ducksalad
Lab note: jot down the number only; don't add units.

# return recorded Plant response rating, Ducksalad for entry O=C1NCC(c2cc(C(F)(F)F)ccc2F)C1C(=O)Nc1cccc(F)c1F (stereo not shown)
90

Look up Plant response rating, Ducksalad of O=C1NCC(c2cccc(O)c2)C1C(=O)Nc1cccc(F)c1F (racemic) and report it.
0

Give me measured Plant response rating, Ducksalad, please, for this molecule: Cc1cc(C2CN(C)C(=O)C2C(=O)Nc2ccccc2S(C)(=O)=O)ccc1F (stereo not shown)
85

Fill in Plant response rating, Ducksalad for record CN1CC(c2ccc(C(F)(F)F)cc2)C(C(=O)Nc2ccc(F)cc2F)C1=O (stereo not shown)
100
